Experimental target: mouse Tas2r144 (Mus musculus, UniProt Q7TQB8)
Construct: expressed in transfected cells; host or cells: HEK293T-Gα16gust44
Sequence (Q7TQB8 whole entry): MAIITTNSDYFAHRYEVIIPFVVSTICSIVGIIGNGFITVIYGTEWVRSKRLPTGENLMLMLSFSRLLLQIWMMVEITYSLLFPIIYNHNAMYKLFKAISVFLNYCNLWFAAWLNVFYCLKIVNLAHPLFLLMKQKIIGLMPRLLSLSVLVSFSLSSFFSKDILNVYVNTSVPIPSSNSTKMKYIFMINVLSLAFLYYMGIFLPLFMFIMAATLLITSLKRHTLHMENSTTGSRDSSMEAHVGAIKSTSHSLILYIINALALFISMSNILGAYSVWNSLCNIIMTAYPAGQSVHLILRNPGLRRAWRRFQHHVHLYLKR
Protocol details: Calcium imaging assay (FLIPR), HEK293T-Gα16gust44 cells transfected with mouse Tas2r144
Format: cell-based
Run conditions: Time 88.781 s
Reported metric: RLU (RLU)
Please reply with the bare figure in RLU and do not write the unit itself.

Examples from the recorded data:
Task: What RLU value was documented for this compound, C[C@H](CCC(=O)NCCS(=O)(=O)O)[C@H]1CC[C@H]2[C@@H]3[C@H](O)C[C@@H]4C[C@H](O)CC[C@]4(C)[C@H]3C[C@H](O)[C@]12C ?
Output: 533.968

Task: Can you check C[C@H](CCC(=O)O)[C@H]1CC[C@H]2[C@@H]3[C@H](O)C[C@@H]4C[C@H](O)CC[C@]4(C)[C@H]3C[C@H](O)[C@]12C next?
Output: 568.631

Task: Can you check C[C@H](CCC(=O)NCCS(=O)(=O)O)[C@H]1CC[C@H]2[C@@H]3CC[C@@H]4C[C@H](O)CC[C@]4(C)[C@H]3CC[C@]12C next?
Output: 405.957

Further cases:
Task: What RLU value was documented for this compound, C[C@H](CCC(=O)NCC(=O)O)[C@H]1CC[C@H]2[C@@H]3[C@H](O)C[C@@H]4C[C@H](O)CC[C@]4(C)[C@H]3C[C@H](O)[C@]12C ?
Output: 405.471
